tested on: SK-MEL-28 melanoma; test: NCI tumour cell line growth inhibition, 48 h
# reported TGI; entries follow

Sample records with TGI:
{"compound": "O=[N+]([O-])c1ccc(-c2ccccc2)c([As](=O)(O)O)c1", "TGI": "50.3 µM"}
{"compound": "COC1=CC(=O)c2ccccc2C1(C)C1=NC(C)(C)CO1 (stereo not given)", "TGI": "> 100 µM"}
{"compound": "NC(=O)NC(=O)C1CCCCC1C(=O)O (stereo not given)", "TGI": "> 100 µM"}
{"compound": "COc1ccc(/C(Cl)=C/c2ccc(Cl)c(Cl)c2)cc1", "TGI": "> 100 µM"}

Read the entry CCCC(=O)OCC(O)CO (stereo not given) and write its reported TGI.
> 5000 µM

Quickly give me recorded TGI for Oc1[nH]c2ccc(Cl)cc2c1/C=c1/ccc2c(c1)N=C(c1cc(F)cc(F)c1)N=2
> 100 µM

In one line, give reported TGI of the entry COC(=O)C(=O)C1CCCCC(C2=NC3NN=C(N)N3C2=O)C1=O (stereo not given) .
> 100 µM

Respond only with TGI recorded for O=C1c2ccccc2C(=O)c2sc(Nc3ccc(Cl)c(Cl)c3)nc21
20.7 µM

Supply recorded TGI for COC(=O)/C(=N\O)C(C(=O)C=C(C)C)C(=O)C(=O)Nc1ccccc1C (stereo not given) here.
> 100 µM

Answer with reported TGI of CC1=NN(c2ccccc2)C(=O)C1=C1SCCCS1
> 100 µM

====

Entries and their TGI
tested on: OVCAR-8 ovarian; assay: NCI tumour cell line growth inhibition, 48 h

Return TGI (reported value) for this compound: COc1ccc(-c2cncn2-c2cc(OC)c(OC)c(OC)c2)cc1F
> 100 µM

Fill in TGI for record CC(C)Cc1cccc(C(C)C)c1NC(=O)CCC(=O)N/N=C1\C(=N/NC(=O)CCC(=O)Nc2c(C(C)C)cccc2C(C)C)C(c2ccc3c(c2)OCO3)Oc2ccccc21 (stereo not given)
> 100 µM

Read off the recorded TGI for COc1c2ccoc2c(S(=O)(=O)Nc2ccc(Cl)cc2)c2oc(C)cc(=O)c12
> 100 µM

Report measured TGI; entry is NCCc1ccc2c(c1)C(=O)c1c(O)ccc(O)c1C2=O
9.19 µM

Give TGI for the following compound: OC1(c2ccc3ccccc3c2)c2ccc3ccccc3c2C2=NCCN21 (stereo not given)
82.2 µM

====

tested on: SR leukemia; test: NCI tumour cell line growth inhibition, 48 h
experimentalEndpoint: TGI

Check out these entries, answers already filled in.
{"compound": "N#CC(c1ccccc1)(c1ccccc1)[C@@H](c1ccccc1)[C@H](Cc1ccccc1)NS(=O)(=O)c1ccccc1", "TGI": "> 100 µM"}
{"compound": "COc1nc2c(c(=O)n1C)NC(C(O)C(O)CO)C=N2 (stereo unspecified)", "TGI": "> 10 µM"}
{"compound": "CO[C@]12C[C@H](CNC(=O)c3cc(Br)c(Br)[nH]3)O[C@H]1NC(=O)N2", "TGI": "> 100 µM"}

Indicate the recorded TGI value for this compound: O=C(CCc1cccc(O)c1)NCCc1cccc(OCc2ccccc2)c1
> 71.6 µM

Tell me its TGI given COc1cccc(/C=C2\C(=O)N(C(=O)Cc3ccccc3)N=C2C)c1 as the entry.
> 100 µM

====

// reported TGI per item
tested on: K-562 leukemia; experiment: NCI tumour cell line growth inhibition, 48 h
State just the number; it will be interpreted in µM.

Name the value of TGI reported for CCCc1ccc(OCC(=O)N/N=C/c2c(-c3ccccc3)[nH]c3ccccc23)cc1 when tested on K-562 leukemia.
23.1

Jot down TGI (K-562 leukemia) of CNCCOc1nc2c3cnccc3cc(-c3cc(OC)c(OC)c(OC)c3)c2c2ccncc12 .
10.1

====

system: SN12C renal; assay: NCI tumour cell line growth inhibition, 48 h
Returns True if the recorded TGI is greater than or equal to 20 µM, and False otherwise.

{"molecule": "O=C(Nc1cc(Cl)c(Cl)cc1Cl)C(=O)C(C(=O)c1ccc2ccccc2c1)C1OC(=O)c2ccccc21 (configuration not stated)", "classAssignment": "True"}
{"molecule": "O=C(O)Cc1ccc2c(c1O)C(=O)c1c(ccc(CC(=O)O)c1O)C2=O", "classAssignment": "True"}
{"molecule": "Cc1cc(-c2nc3cc(F)ccc3s2)ccc1NC(=O)C(C)N (configuration not stated)", "classAssignment": "False"}
{"molecule": "O=C1C=C(Nc2ccccc2C(=O)CC(=O)C(=O)Nc2ccc(Cl)c(Cl)c2)c2ccccc2C1=O", "classAssignment": "True"}
{"molecule": "CNC(=O)OCCN1c2ccccc2Sc2ccccc21", "classAssignment": "True"}

Dear colleague, could you confirm whether CCOC(=O)c1c(N2CCOCC2)[nH]c(=O)c(C(c2ccc(Cl)c([N+](=O)[O-])c2)c2c(O)c(C(=O)OCC)c(N3CCOCC3)[nH]c2=O)c1O has TGI at or above 20 µM?
True

Say whether COc1cccc2c1C(=O)c1c(O)c3c(c(O)c1C2=O)C[C@@](O)(/C(C)=N/NC(=O)c1ccc(Cl)c(Cl)c1)C[C@@H]3OC1CC(N)C(O)C(C)O1 (some centres not stated) shows TGI of 20 µM or more.
False

hey, is TGI for this one >= 20 µM? CC1(C)O[C@@H](CP(c2ccccc2)c2ccccc2)[C@H](CP(c2ccccc2)c2ccccc2)O1
False

====

test system: A549 NSCLC; assay: NCI tumour cell line growth inhibition, 48 h
Listing of entries alongside the reported log10 of TGI.
Give log10 of TGI, with TGI taken in µM.

Previously resolved entries follow.
{"compound": "C=C(C)[C@@H]1CC[C@]2(C)[C@H](C=CC3=C4C[C@@](C)(CO)CC[C@]4(C)CC[C@]32C)[C@@]1(C)CCCN", "log10 of TGI": 0.50}
{"compound": "COc1ccc2c(c1)CC[C@@H]1[C@@H]2CC[C@]2(C)[C@@H](O)/C(=C/c3ccncc3)C[C@@H]12", "log10 of TGI": 1.61}
{"compound": "O=C(Nc1cc(Cl)c(Cl)cc1Cl)C(=O)C(C(=O)c1ccc2ccccc2c1)C1OC(=O)c2ccccc21 (centres undefined)", "log10 of TGI": 1.91}
{"compound": "CC12OC3CC(O1)C1(C=O)C4CCC5(C)C(c6ccc(=O)oc6)CCC5(O)C4CCC1(C3)O2 (centres undefined)", "log10 of TGI": -0.71}

--- query ---
Look up and report measured log10 of TGI for this entry: COc1ccc(C2C(Cl)C(=O)N2NC(=O)c2ccc(N)cc2)cc1OC (centres undefined)
1.53

====

tested on: BT-549 breast; assay: NCI tumour cell line growth inhibition, 48 h
Parameter GI50: see the listing below.

Would you please look over these solved cases?
{"molecule": "CC(C)N(C[C@H]1O[C@@H](n2cnc3c(N)ncnc32)[C@H](O)[C@@H]1O)C1CC(CCc2nc3ccc(C(C)(C)C)cc3[nH]2)C1 (stereo not given in full)", "targetSystem": "BT-549 breast", "GI50": "> 60500 nM"}
{"molecule": "CN(C)CCOc1nc2ccccc2c2c1-c1ccc(Cl)cc1C2=O", "targetSystem": "BT-549 breast", "GI50": "2010 nM"}
{"molecule": "N#Cc1c(Oc2ccc(F)c(NC(=O)Cc3cccc(C(F)(F)F)c3)c2)ccc2nc(NC(=O)C3CC3)sc12", "targetSystem": "BT-549 breast", "GI50": "2710 nM"}
{"molecule": "C/C(=N\\Nc1cccc(Cl)n1)c1ccccn1", "targetSystem": "BT-549 breast", "GI50": "1400 nM"}

Output measured GI50 for this item: CSc1ccc(C2=NN(C(=O)c3ccc(N)cc3)C(c3ccc(F)cc3)C2)cc1 (stereo not given)
12300 nM

====

test system: SR leukemia; assay: NCI tumour cell line growth inhibition, 48 h; in the data active = GI50 below about 0.43 µM; inactive = the rest
Answer with one of the outcomes Yes = active, No = inactive

Reference set, count: 8
{"compound": "ClC1=C(Cl)C(Cl)=C(Cl)C1=Cc1ccc(Cl)cc1", "classAssignment": "Yes"}
{"compound": "CN(C)CCOc1nc2ccccc2c2c1-c1ccc(Cl)cc1C2=O", "classAssignment": "Yes"}
{"compound": "C[C@@H]1CN2[C@H]3[C@@H]1CC[C@]31CCC(=O)O[C@]1(C)[C@@H]1CC[C@H]3CCC=C3[C@@H]12", "classAssignment": "No"}
{"compound": "CC(=O)OCC(=O)C1(O)C(C)CC2C3C=C(C)C4=Cc5c(cnn5-c5ccccc5)CC4(C)C3C(O)CC21C (stereo not given)", "classAssignment": "No"}
{"compound": "COc1cc(C2C(C#N)=C(N)Oc3cc4c(cc32)OCO4)cc2c1OCO2 (stereo not given)", "classAssignment": "Yes"}
{"compound": "CNCCOc1nc2c3cnccc3cc(-c3cc(OC)c(OC)c(OC)c3)c2c2ccncc12", "classAssignment": "Yes"}
{"compound": "O=C(CC1(O)C(=O)Nc2c(Cl)ccc(Cl)c21)c1ccc(C2CC2)cc1 (stereo not given)", "classAssignment": "Yes"}
{"compound": "C=C1C(=O)OC2CC3(C)OC3C3OC3C3=CC(OC3=O)C12 (stereo not given)", "classAssignment": "No"}

Returns: the outcome recorded for Cc1c(N2C(=O)/C(=C\c3ccc(N(C)C)cc3)N=C2c2ccccc2)c(=O)n(-c2ccccc2)n1C in this assay.
No

Answer briefly: the call reported for CCC[CH2][Sn]1([CH2]CCC)[O]C(=O)c2cc(C)ccc2[O]1 in this assay.
Yes

Taken from PubChem BioAssay (NCI).
